Give measured TGI for each item. Keep answers brief.
System: XF 498 CNS
Test: NCI tumour cell line growth inhibition, 48 h

[in] Annotate the molecule `Cc1nn2c(nc1=O)sc1ccc3ccccc3c12` with its measured TGI.
[out] > 100 µM

[in] Fill in TGI for record CC1=CCCC2C1(C)CCC(C)C2(C)Cc1cc(O)ccc1O (stereo not drawn)
[out] 21.7 µM

[in] Return TGI (reported value) for this molecule: O=C(NCc1cccnc1)C1COc2cc(-c3cc(=O)c4ccccc4o3)ccc2O1 (stereo not drawn)
[out] 72.1 µM

[in] Look up TGI of O=C(O)C(C(=O)O)P(=S)(S)c1ccccc1 (stereo not drawn) and report it.
[out] > 100 µM

[in] Give the value of TGI reported for the following: `C/C(CC(=O)Nc1cc(C)ccc1C)=N/N=C(N)N`
[out] > 100 µM

[in] Look up and report measured TGI for this entry: `O=C1C=CC(=O)c2c1ccc1c3ccccc3n(-c3ccccc3)c21`
[out] 20.1 µM

[in] Find the measured TGI of `O=C1C=CC2(C=C1)CCNC1=C2C(=O)c2ccccc2C1=O` and report it.
[out] > 100 µM

[in] Supply measured TGI of `COc1ccc(NC(=O)CC/C(CC(=O)c2ccco2)=N/NC(N)=S)cc1` in your reply.
[out] > 100 µM

[in] Output measured TGI for this item: `N#CCCN(CCC#N)c1ccc(/C=C(\NC(=O)c2cc([N+](=O)[O-])ccc2Cl)C(=O)Nc2ccccc2)cc1`
[out] > 100 µM

[in] Given `CCOC(=O)C(C(=O)OCC)c1ccc([N+](=O)[O-])o1` , respond with its TGI.
[out] 31 µM

[in] Please give the documented TGI of O=C1CC2(CCC3=C(O2)c2ccccc2NC(=O)C3)C(=O)c2ccccc2N1 (stereo not drawn)
[out] > 100 µM

[in] Quote TGI reported for O=C(c1ccccc1)C(c1ccccc1)C1(O)C(=O)Nc2ccc([N+](=O)[O-])cc21 (stereo not drawn) please.
[out] > 100 µM

[in] Let me know recorded TGI for `Cc1nc(N2N=C(c3ccc(Cl)cc3)CCC2=O)sc1[N+](=O)[O-]` , thanks.
[out] > 100 µM

----------
System: RPMI-8226 leukemia
Assay: NCI tumour cell line growth inhibition, 48 h
measured quantity: TGI

[in] Supply reported TGI belonging to this molecule: `O=C(O)c1nc2ccc(C(F)(F)F)cc2nc1NCc1ccc(Cl)c(Cl)c1`
[out] > 100 µM

[in] Identify TGI associated with the molecule NC(=O)c1ncn(C2OC(CO)C(O)C2O)c1NC=O (centres undefined)
[out] > 100 µM

[in] Kindly indicate its recorded TGI. Item: `COc1cc(C(=O)N2CCN(c3ccccc3)CC2)c2ccccc2n1`
[out] > 100 µM

[in] # return recorded TGI for entry `Cn1nc(C(F)(F)F)cc1-c1c[nH]c(OCc2ccc(Cl)cc2)c(-c2ccc(Cl)c(C(F)(F)F)c2)c1=O`
[out] 2.24 µM

[in] Consider the molecule Cc1c2c(OCC(O)CN3CCN(c4ccccc4)CC3)nn(C)c(=O)c2c(C)n1-c1ccccc1 (centres undefined) . State its measured TGI.
[out] 52.5 µM

[in] Kindly indicate its recorded TGI. Item: COC(=O)C1=CO[C@@H](OC2OC(CO)C(O)C(O)C2O)[C@H]2[C@@H](C)[C@@H](O)[C@@H](O)[C@@H]12 (some centres undefined)
[out] > 100 µM

[in] Write down TGI measured for item O=C(OC1CCC2OOC1O2)c1ccc([N+](=O)[O-])cc1 (centres undefined)
[out] > 100 µM

[in] Give the measured TGI for COc1cc(C2c3cc4c(cc3[C@H](NS(C)(=O)=O)C3COC(=O)[C@H]23)OCO4)cc(OC)c1OC (some centres undefined)
[out] 46.3 µM

[in] Give the value of TGI reported for the following: `CN(C)CCCNC(=O)CCNC(=O)c1cc(NC(=O)c2cc(NC(=O)c3cc(NC(=O)c4nccn4C)cn3C)cn2C)cn1C`
[out] > 100 µM

[in] Quickly give me recorded TGI for `COc1ccc2c(c1)oc(=O)c1cc(OC)ccc12`
[out] > 100 µM

[in] Supply recorded TGI for `COC(=O)[C@H](Cc1c[nH]c2ccccc12)NP(=O)(O)OC[C@H]1O[C@@H](n2cc(C)c(=O)[nH]c2=O)C[C@@H]1N=[N+]=[N-]` here.
[out] > 100 µM

[in] Retrieve TGI measured for CC(=O)OCC1OC(n2c3c(cc(C#N)c2=S)CCC3)C(OC(C)=O)C(OC(C)=O)C1OC(C)=O (centres undefined) and print it.
[out] > 100 µM

[in] Using the record for `Cc1nc(N2N=C(c3ccc(Cl)cc3)CCC2=O)sc1[N+](=O)[O-]` , state its measured TGI.
[out] > 100 µM

[in] Return reported TGI. Input molecule: CC(C)(C)OC(=O)NC(Cc1ccc(O)cn1)C(=O)O (centres undefined)
[out] > 100 µM

[in] Fill in reported TGI for this entry: `CCCN(CCC)C(=S)N/N=C/c1ccccn1`
[out] 0.566 µM

[in] Read off the recorded TGI for `O=[N+]([O-])c1cc([N+](=O)[O-])c(/C=C/c2ccc(Cl)c(Cl)c2)cc1/C=C/c1ccc(Cl)c(Cl)c1`
[out] 50.3 µM

[in] Supply reported TGI belonging to this molecule: `COc1cc(/C=N\c2nc(-c3ccc(NS(=O)(=O)c4ccc(Cl)c(OC)c4)cc3)cs2)ccc1O`
[out] 74.2 µM

[in] Give the reported value of TGI for this record: `CC(=O)O[C@@H]1C(=O)N(c2ccccc2)[C@@H]1c1cc2ccccc2c2ccccc12`
[out] 82.6 µM

[in] Using known records, supply TGI for `Clc1ccc(CCn2cncn2)cc1`
[out] > 100 µM
